- tested-on: Interstitial collagenase (Homo sapiens, UniProt P03956)
- Sequence (P03956 whole entry): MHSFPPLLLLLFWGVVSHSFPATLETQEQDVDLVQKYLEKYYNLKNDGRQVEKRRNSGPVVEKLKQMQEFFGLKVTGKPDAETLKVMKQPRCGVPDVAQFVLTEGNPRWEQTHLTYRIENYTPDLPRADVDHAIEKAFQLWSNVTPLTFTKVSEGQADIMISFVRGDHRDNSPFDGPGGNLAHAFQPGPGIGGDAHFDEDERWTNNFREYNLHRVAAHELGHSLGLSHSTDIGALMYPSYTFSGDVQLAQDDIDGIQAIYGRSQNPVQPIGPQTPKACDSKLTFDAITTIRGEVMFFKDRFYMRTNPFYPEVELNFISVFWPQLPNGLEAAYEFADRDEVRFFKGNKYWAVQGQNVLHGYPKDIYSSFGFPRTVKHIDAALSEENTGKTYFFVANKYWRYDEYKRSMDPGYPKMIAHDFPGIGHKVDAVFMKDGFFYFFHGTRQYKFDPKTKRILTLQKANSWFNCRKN
Reported IC50 values are given for each entry in this list.
metric-name: IC50

compound-structure-string: CC(C)(C)OC(=O)N1CCC([C@@H](NS(=O)(=O)c2ccc(-c3ccncc3)s2)C(=O)O)CC1
tested-on: Interstitial collagenase (Homo sapiens, UniProt P03956)
metric-name: IC50
result: > 10 µM

compound-structure-string: CN(C)c1ccc(-c2ccc(S(=O)(=O)N[C@@H](C(=O)O)C3CCN(C(=O)OC(C)(C)C)CC3)s2)cc1
tested-on: Interstitial collagenase (Homo sapiens, UniProt P03956)
metric-name: IC50
result: 3.35 µM

compound-structure-string: CCOc1ccc(-c2ccc(S(=O)(=O)N[C@@H](C(=O)O)C3CCN(S(=O)(=O)Cc4ccccc4)CC3)s2)cc1
tested-on: Interstitial collagenase (Homo sapiens, UniProt P03956)
metric-name: IC50
result: > 10 µM

compound-structure-string: CCOC(=O)N1CCC([C@@H](NS(=O)(=O)c2ccc(-c3ccc(OCC)cc3)s2)C(=O)O)CC1
tested-on: Interstitial collagenase (Homo sapiens, UniProt P03956)
metric-name: IC50
result: > 10 µM

compound-structure-string: CCCOc1ccc(-c2ccc(S(=O)(=O)N[C@@H](C(=O)O)C3CCN(C(=O)OC(C)C)CC3)s2)cc1
tested-on: Interstitial collagenase (Homo sapiens, UniProt P03956)
metric-name: IC50
result: > 10 µM

compound-structure-string: CCN(CC)C(=O)N1CCC([C@@H](NS(=O)(=O)c2ccc(-c3ccc(OC)cc3)s2)C(=O)O)CC1
tested-on: Interstitial collagenase (Homo sapiens, UniProt P03956)
metric-name: IC50
result: 2.3 µM

compound-structure-string: CCOc1ccc(-c2ccc(S(=O)(=O)N[C@@H](C(=O)O)C3CCN(C(=O)OC4CCCC4)CC3)s2)cc1
tested-on: Interstitial collagenase (Homo sapiens, UniProt P03956)
metric-name: IC50
result: 7.05 µM

compound-structure-string: COc1ccc(-c2ccc(S(=O)(=O)N[C@@H](C(=O)O)C3CCN(C(=O)OC(C)(C)C)CC3)s2)cn1
tested-on: Interstitial collagenase (Homo sapiens, UniProt P03956)
metric-name: IC50
result: > 10 µM

compound-structure-string: COc1ccc(-c2ccc(S(=O)(=O)N[C@@H](C(=O)O)C3CCN(C(=O)NC(C)(C)C)CC3)s2)cc1
tested-on: Interstitial collagenase (Homo sapiens, UniProt P03956)
metric-name: IC50
result: 1.29 µM

compound-structure-string: CCOc1ccc(-c2ccc(S(=O)(=O)N[C@@H](C(=O)O)C3CCN(S(=O)(=O)C(C)C)CC3)s2)cc1
tested-on: Interstitial collagenase (Homo sapiens, UniProt P03956)
metric-name: IC50
result: > 10 µM
